meta.source: paper PMC13266984

Cell_CC-v2 values by entry
Biological target: UniProt:P30838
Sequence (P30838 whole entry): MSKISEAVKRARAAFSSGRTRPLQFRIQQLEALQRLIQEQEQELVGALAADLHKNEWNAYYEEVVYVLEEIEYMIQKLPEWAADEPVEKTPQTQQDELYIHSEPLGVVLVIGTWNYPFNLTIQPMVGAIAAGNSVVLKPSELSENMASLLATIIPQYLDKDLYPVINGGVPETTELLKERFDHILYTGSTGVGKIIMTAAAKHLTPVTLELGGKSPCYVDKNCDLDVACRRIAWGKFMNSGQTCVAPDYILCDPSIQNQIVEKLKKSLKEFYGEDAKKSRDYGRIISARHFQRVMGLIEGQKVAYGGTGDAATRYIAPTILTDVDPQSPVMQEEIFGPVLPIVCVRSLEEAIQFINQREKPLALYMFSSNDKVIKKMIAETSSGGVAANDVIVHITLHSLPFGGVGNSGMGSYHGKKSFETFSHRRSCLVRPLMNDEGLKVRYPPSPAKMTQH
Experiment: Cellular ALDEFLUOR assay in OE19 cells (preferential ALDH3A1 expression)
Conditions: Table S5, cellular curve class
// keep it numeric: no unit symbol after the value

>  <Compound>
CC(=O)c1cccc(CNC(=O)c2csc(N3CCN(c4cccc(C(F)(F)F)c4)CC3)n2)c1 [NCGC01397289-01]

>  <Tested System>
UniProt:P30838

>  <Cell_CC-v2>
-1.3

$$$$
>  <Compound>
O=C(NCc1cccc(OC(F)(F)F)c1)c1csc(N2CCN(c3cccc(C(F)(F)F)c3)CC2)n1 [NCGC01407819-01]

>  <Tested System>
UniProt:P30838

>  <Cell_CC-v2>
-1.1

$$$$
>  <Compound>
O=C(NCc1c(Cl)cccc1Br)c1csc(N2CCN(c3cccc(C(F)(F)F)c3)CC2)n1 [NCGC01407972-01]

>  <Tested System>
UniProt:P30838

>  <Cell_CC-v2>
4

$$$$

Q: Consider the compound O=C(NCc1cccc(CC(F)(F)F)c1)c1csc(N2CCN(c3cccc(C(F)(F)F)c3)CC2)n1 [NCGC01407930-01] . State its measured Cell_CC-v2.
Result: -2.1
